Assayed Target: PKC β II (Homo sapiens, UniProt P05771)
Construct: purchased CALBIOCHEM
Sequence (P05771 other isoform, or with tags, fused parts or gaps): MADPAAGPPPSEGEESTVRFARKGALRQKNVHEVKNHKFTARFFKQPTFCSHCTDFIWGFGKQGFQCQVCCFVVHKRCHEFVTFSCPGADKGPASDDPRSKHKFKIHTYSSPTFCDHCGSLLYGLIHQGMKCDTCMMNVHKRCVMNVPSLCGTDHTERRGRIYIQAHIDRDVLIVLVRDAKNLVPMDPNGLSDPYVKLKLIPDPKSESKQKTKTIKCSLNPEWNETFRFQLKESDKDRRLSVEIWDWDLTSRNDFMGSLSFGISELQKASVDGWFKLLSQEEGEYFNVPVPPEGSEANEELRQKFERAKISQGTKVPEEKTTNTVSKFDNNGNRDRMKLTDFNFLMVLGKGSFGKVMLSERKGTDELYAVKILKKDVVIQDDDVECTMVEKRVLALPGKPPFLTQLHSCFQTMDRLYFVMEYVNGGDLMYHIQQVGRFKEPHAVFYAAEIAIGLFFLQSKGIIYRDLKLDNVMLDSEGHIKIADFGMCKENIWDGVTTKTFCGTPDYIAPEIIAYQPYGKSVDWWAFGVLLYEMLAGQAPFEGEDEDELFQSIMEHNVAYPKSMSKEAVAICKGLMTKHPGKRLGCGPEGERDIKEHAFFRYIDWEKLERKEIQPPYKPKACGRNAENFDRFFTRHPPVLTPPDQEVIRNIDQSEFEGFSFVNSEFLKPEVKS
Assay Remarks: PKC enzyme assay (BIOTRAK Protein kinase C enzyme assay system, 32P-ATP phosphorylation of peptide […])
Format: biochemical
Particulars: read-out: Inhibition of PKC activity IC50 PKC β II; Protein Kinase C, Human Recombinant; test substance 1 nM-10 µM; 37°C, 15 minutes
Attribute Measured: IC50 (nM)

Compound | IC50 [nM]
CN(C)C[C@H]1Cc2c(C3=C(Nc4ccc(F)cc4)C(=O)NC3=O)c3ccccc3n2C1 | 6
CCNCC1Cc2c(C3=C(Nc4ccccc4)C(=O)NC3=O)c3ccccc3n2C1 (centres unmarked) | 3
O=C1NC(=O)C(c2c3n(c4ccccc24)C[C@@H](CO)C=C3)=C1Nc1ccccc1 | 14

I = COC[C@H]1Cc2c(C3=C(Nc4ccc(F)cc4)C(=O)NC3=O)c3ccccc3n2C1
II = CCN(C)C[C@H]1Cc2c(C3=C(Nc4ccc(F)cc4)C(=O)NC3=O)c3ccccc3n2C1
III = O=C1NC(=O)C(c2c3n(c4ccccc24)CC(Cn2ccnc2)C3)=C1Nc1ccccc1 (centres unmarked)
IV = CNCC1Cc2c(C3=C(Nc4ccc(F)cc4)C(=O)NC3=O)c3ccccc3n2C1 (centres unmarked)
V = O=C1NC(=O)C(c2c3n(c4ccccc24)C[C@@H](CN2CCOCC2)CC3)=C1Nc1ccccc1
Arrange the 5 compounds from largest to smallest IC50. Rank them, then answer with their labels in that order.
I, V, II, III, IV
(I: 84 nM, V: 57 nM, II: 12 nM, III: 7 nM, IV: 4 nM)

* * *

Assayed Target: PKC α (Homo sapiens)
Construct: purchased CALBIOCHEM
Assay Remarks: PKC enzyme assay (BIOTRAK Protein kinase C enzyme assay system, 32P-ATP phosphorylation of peptide […])
Format: biochemical
Particulars: Protein Kinase C, Human Recombinant; test substance 1 nM-10 µM; 37°C, 15 minutes; read-out: Inhibition of PKC activity IC50 PKC α
Protocol: As the reagent for enzyme assay, BIOTRAK Protein kinase C enzyme assay system (hereinafter the system, Amersham), and as the PKC enzyme standard product, Protein Kinase C, Human Recombinant (CALBIOCHEM) were purchased and used in the assay. […] The ratio of the radioactivity of the addition of the test substance to the addition of DMSO was determined, and IC50 was calculated from inhibition at each concentration.
Attribute Measured: IC50 (nM)

Here are 2 compounds together with their reported answers.
Compound | Attribute Measured | Value Reported
CC(C)(C)OC(=O)C1CCN(CCCn2cc(C3=C(Nc4ccccc4)C(=O)NC3=O)c3ccccc32)CC1 [Example 2-51] | IC50 | 1020
Cl.N=C(N)N1CCC(Cn2cc(C3=C(Nc4ccccc4)C(=O)NC3=O)c3ccccc32)CC1 [Example 3-7, hydrochloride] | IC50 | 2560

1 = CC(=O)OCCn1cc(C2=C(Nc3ccccc3)C(=O)NC2=O)c2ccccc21 [Example 2-7]
2 = CN(C)CCn1cc(C2=C(Nc3ccccc3)C(=O)NC2=O)c2ccccc21 [Example 2-9]
// task: argmin of IC50 over [ 1 , 2 ] Could you answer with the label of the item you picked?
2
(2: 2160 nM, 1: 3170 nM)

* * *

Assayed Target: PKC β II (Homo sapiens, UniProt P05771)
Construct: purchased CALBIOCHEM
Assay Remarks: PKC enzyme assay (BIOTRAK Protein kinase C enzyme assay system, 32P-ATP phosphorylation of peptide […])
Assay type: biochemical
Particulars: Protein Kinase C, Human Recombinant; test substance 1 nM-10 µM; 37°C, 15 minutes; read-out: Inhibition of PKC activity IC50 PKC β II
Attribute Measured: IC50 (nM)

1 = CN1CCC(Cn2cc(C3=C(Nc4ccccc4)C(=O)NC3=O)c3ccccc32)CC1
2 = CN(C)CCCn1cc(C2=C(Nc3ccccc3)C(=O)NC2=O)c2ccccc21
3 = O=C1NC(=O)C(c2cn(CCCn3cccn3)c3ccccc23)=C1Nc1ccccc1
4 = CCN(CCCn1cc(C2=C(Nc3ccccc3)C(=O)NC2=O)c2ccccc21)Cc1ccccc1
Order these by IC50, descending, and give the full ranking. Rank them, then answer with their labels in that order.
4, 3, 1, 2
(4: 103 nM, 3: 60 nM, 1: 18 nM, 2: 12 nM)

A = CN1CCN(CCCCn2cc(C3=C(Nc4ccccc4)C(=O)NC3=O)c3ccccc32)CC1
B = O=C1NC(=O)C(c2cn(CCCCCn3ccnc3)c3ccccc23)=C1Nc1ccccc1
// task: argmin of IC50 over [ A , B ] Could you answer with the label of the item you picked?
A

I = O=C1NC(=O)C(c2cn(CCCN3CCC(Cc4ccccc4)CC3)c3ccccc23)=C1Nc1ccccc1
II = Cc1nccn1CCCn1cc(C2=C(Nc3ccccc3)C(=O)NC2=O)c2ccccc21
III = CCN(CCCn1cc(C2=C(Nc3ccccc3)C(=O)NC2=O)c2ccccc21)Cc1ccncc1
IV = O=C1NC(=O)C(c2cn(CCCS(=O)(=O)c3ccccc3)c3ccccc23)=C1Nc1ccccc1
Arrange the 4 compounds from largest to smallest IC50. Rank them, then answer with their labels in that order.
III, IV, I, II
(III: 183 nM, IV: 95 nM, I: 18 nM, II: 9 nM)

I = O=C1NC(=O)C(c2cn(CCCN3CCCCC3)c3ccccc23)=C1Nc1ccccc1
II = O=C1NC(=O)C(c2cn(CCCN3CCC(O)CC3)c3ccccc23)=C1Nc1ccccc1
Endpoint returns whichever of I and II has the numerically higher IC50. Could you answer with the label of the item you picked?
I

a = O=C1NC(=O)C(c2cn(CCCN3CCC(CO)CC3)c3ccccc23)=C1Nc1ccccc1
b = NC(=O)C1CCN(CCCn2cc(C3=C(Nc4ccccc4)C(=O)NC3=O)c3ccccc32)CC1
// task: argmin of IC50 over [ a , b ] Could you answer with the label of the item you picked?
b

* * *

Assayed Target: PKC β II (Homo sapiens)
Construct: purchased CALBIOCHEM
Assay Remarks: PKC enzyme assay (BIOTRAK Protein kinase C enzyme assay system, 32P-ATP phosphorylation of peptide […])
Assay type: biochemical
Particulars: Protein Kinase C, Human Recombinant; test substance 1 nM-10 µM; 37°C, 15 minutes; read-out: Inhibition of PKC activity IC50 PKC β II
Attribute Measured: IC50 (µM)

Here are 4 compounds together with their reported answers.
Compound | Attribute Measured | Measurement Units | Value Reported
CCN(CCCn1cc(C2=C(Nc3ccccc3)C(=O)NC2=O)c2ccccc21)CCOC | IC50 | µM | 0.035
Cc1c(C2=C(Nc3ccccc3)C(=O)NC2=O)c2ccccc2n1CCCN1CCCC1 | IC50 | µM | 0.096
O=C1NC(=O)C(c2cn(CCCCCN3CCC(O)CC3)c3ccccc23)=C1Nc1ccccc1 | IC50 | µM | 0.025
O=C1NC(=O)C(c2c3n(c4ccccc24)C[C@@H](CO)C3)=C1Nc1ccccc1 | IC50 | µM | 0.004

1 = O=C1NC(=O)C(c2cn(CCCCO)c3ccccc23)=C1Nc1ccccc1
2 = O=C1NC(=O)C(c2c[nH]c3ccccc23)=C1Nc1cccc(F)c1
3 = O=C1NC(=O)C(c2cn(CCCN3CCCC3)c3ccccc23)=C1Nc1ccccc1
4 = CN(C)CC1CCn2c(c(C3=C(Nc4ccccc4)C(=O)NC3=O)c3ccccc32)C1 (centres unmarked)
Ascending sort, IC50. Rank them, then answer with their labels in that order.
4, 3, 1, 2
(4: 0.005 µM, 3: 0.018 µM, 1: 0.03 µM, 2: 0.249 µM)

* * *

Assayed Target: PKC β II (Homo sapiens, UniProt P05771)
Construct: purchased CALBIOCHEM
Assay Remarks: PKC enzyme assay (BIOTRAK Protein kinase C enzyme assay system, 32P-ATP phosphorylation of peptide […])
Assay type: biochemical
Particulars: IC50 PKC α / IC50 PKC β II
Attribute Measured: Ratio α/β

1 = CCN(C)CC1CCc2c(C3=C(Nc4ccccc4)C(=O)NC3=O)c3ccccc3n2C1 (centres unmarked)
2 = CN(C)CC1CCn2c(c(C3=C(Nc4ccccc4)C(=O)NC3=O)c3ccccc32)C1 (centres unmarked)
// task: argmin of Ratio α/β over [ 1 , 2 ] Could you answer with the label of the item you picked?
2
(2: 51, 1: 101)

A = O=C1NC(=O)C(c2cn(CCO)c3ccccc23)=C1Nc1ccccc1
B = O=C1NC(=O)C(c2c3n(c4ccccc24)C[C@H](CN2CCOCC2)CC3)=C1Nc1ccccc1
// task: argmin of Ratio α/β over [ A , B ] Could you answer with the label of the item you picked?
A
(A: 79, B: 121)

I = O=C1NC(=O)C(c2c3n(c4ccccc24)CC(Cn2ccnc2)C3)=C1Nc1ccccc1 (centres unmarked)
II = O=C1NC(=O)C(c2cn(CCCn3ccnc3)c3ccccc23)=C1Nc1cccc(Cl)c1
Endpoint returns whichever of I and II has the numerically higher Ratio α/β. Could you answer with the label of the item you picked?
I
(I: 85, II: 17)
